Below, each of the compounds is paired with its reported viability, T/C value.
test system: 188146-221-R-J1-PDC complex spheroid viability; test: Anticancer human tumor 188146-221-R-J1-PDC patient-derived colon adenocarcinoma cell line growth inhibition [POLQ]; conditions: second compound 10 µM; first compound 10 µM; hits give low values;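 also: spheroids exposed to compounds for seven days; 100% = DMSO vehicle control viability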
Provide only the numeric value, understood in %.

Solved entries (count: 4):
{"columns": ["COMPOUND", "viability, T/C [%]"],
 "data": [
  ["CC1COCCN1c1cc(-c2ccnn2C)c2ccnc(-c3ccn[nH]3)c2n1 (stereo not given) + Cc1cccc(N(C)C(=O)C2C(O)CCN2c2nc(C)cc(C(F)(F)F)c2C#N)c1", 20.2],
  ["O=C(Nc1ccc(O)c(NS(=O)(=O)c2ccc(F)cc2)c1)c1ccc(-c2ccccc2)cc1 + Cc1cccc(N(C)C(=O)C2C(O)CCN2c2nc(C)cc(C(F)(F)F)c2C#N)c1", 51.2],
  ["COc1ccc([C@@H](O)c2cc(-c3ncnc4cc(N5CCOCC5)ccc34)c(F)cc2Cl)nn1 + COC1C(OC(N)=O)C(O)C(Oc2ccc3c(O)c(NC(=O)c4ccc(O)c(CC=C(C)C)c4)c(=O)oc3c2C)OC1(C)C", 30],
  ["COc1cc(C2c3cc4c(cc3C(OC3OC5COC(C)OC5C(O)C3O)C3COC(=O)C23)OCO4)cc(OC)c1O (stereo not given) + Nc1ccc(C#CCN(C(=O)Cc2ncc(C(F)(F)F)cc2C(F)(F)F)c2ccc(F)cc2)nn1", 29]
]}

# viability, T/C of O=C(c1cc(Cc2n[nH]c(=O)c3ccccc23)ccc1F)N1CCN(C(=O)C2CC2)CC1 + COC1C(OC(N)=O)C(O)C(Oc2ccc3c(O)c(NC(=O)c4ccc(O)c(CC=C(C)C)c4)c(=O)oc3c2C)OC1(C)C = 80.5

# viability, T/C of CC1COCCN1c1cc(-c2ccnn2C)c2ccnc(-c3ccn[nH]3)c2n1 (stereo not given) + COC1C(OC(N)=O)C(O)C(Oc2ccc3c(O)c(NC(=O)c4ccc(O)c(CC=C(C)C)c4)c(=O)oc3c2C)OC1(C)C = 17

# viability, T/C of CNCc1ccc(-c2[nH]c3cc(F)cc4c3c2CCNC4=O)cc1 + COC1C(OC(N)=O)C(O)C(Oc2ccc3c(O)c(NC(=O)c4ccc(O)c(CC=C(C)C)c4)c(=O)oc3c2C)OC1(C)C = 121

# viability, T/C of C#Cc1c(F)ccc2cc(O)cc(-c3ncc4c(N5CC6CCC(C5)N6)nc(OCC56CCCN5CC(F)C6)nc4c3F)c12 (stereo not given) + COC1C(OC(N)=O)C(O)C(Oc2ccc3c(O)c(NC(=O)c4ccc(O)c(CC=C(C)C)c4)c(=O)oc3c2C)OC1(C)C = 92.8

# viability, T/C of CC1COCCN1c1cc(C2(O)CC3CCC(C2)O3)c2cnn(-c3ccn[nH]3)c2n1 (stereo not given) + Cc1cccc(N(C)C(=O)C2C(O)CCN2c2nc(C)cc(C(F)(F)F)c2C#N)c1 = 9.35

# viability, T/C of CCc1cc2c(N3CCc4c(cc(Cn5ccnc5)cc4-c4cn(C)nc4C(F)(F)F)C3=O)cc(C)nc2c(OC)n1 + COC1C(OC(N)=O)C(O)C(Oc2ccc3c(O)c(NC(=O)c4ccc(O)c(CC=C(C)C)c4)c(=O)oc3c2C)OC1(C)C = 43.2
